For each record, write down the corresponding IC50.
test.target: CyclinB1/CDK1 (Homo sapiens, UniProt P14635)
Construct: purchased Eurofins, discovery 14-450
experiment.notes: Fluorescence Polarization (FP) competitive binding assay, Cyclin B1/Cdk1;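 further: fluorescence polarization read after equilibration at room temperature, with IC50 taken from serially diluted dose-response curves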
condition.details: 10 nM Cyclin B1/Cdk1, 2 nM FAM probe; average of 2-3 independent experiments; read-out: Cyclin B FP IC50
*1 amine or outer side, *2 acyl side, *3 side chain or, on linkers, in order; H or OH if unused. Where a SMILES comes first, the peptide text is derived from it. Bridges are numbered along the chain shown (N, C = ends). [ ]: non-standard residue; d: D form. The star is where a group is joined. NMehhhLys(Me) = CN([C@@H](CCCCCCCN(C)[*:3])C(=O)[*:2])[*:1]; X204 = CN([C@@H](Cc1cc(F)ccc1-c1ccnnc1)C(=O)[*:2])[*:1]; cBuCO(3,3-F2-1-CF3) = O=C(C1(C(F)(F)F)CC(F)(F)C1)*; Pro(trans-4-F) = O=C(O)[C@@H]1C[C@@H](F)CN1; Gly(cPr) = N[C@H](C(=O)O)C1CC1
Answer with a number only, understood to be in nM.

Q: Could you tell me which IC50 is on file for CC(C)C[C@@H]1NC(=O)[C@@H](N(C)C(=O)[C@@H](NC(=O)[C@@H]2C[C@@H](F)CN2C(=O)C2(C(F)(F)F)CC(F)(F)C2)C2CC2)CCCCCCCN(C)C(=O)[C@H](Cc2cc(F)ccc2-c2ccnnc2)N(C)C1=O [Example 279] ({cBuCO(3,3-F2-1-CF3)}-[Pro(trans-4-F)][Gly(cPr)][NMehhhLys(Me)]L[X204]; lactam 3-C) ?
Result: 20

Q: Please give the result for CC(C)C[C@@H]1NC(=O)[C@@H](N(C)C(=O)[C@@H](NC(=O)[C@@H]2C[C@@H](F)CN2C(=O)C2(C(F)(F)F)CCC2)C2CC2)C/C=C\CCCCN(C)C(=O)[C@H](Cc2cc(Cl)ccc2-c2cnn(C3CC3)c2)N(C)C1=O too.
Result: 20

* * *

test.target: CyclinE1/CDK2 (Homo sapiens, UniProt P24864)
Construct: purchased Eurofins, discovery 14-475
experiment.notes: Fluorescence Polarization (FP) competitive binding assay, Cyclin E1/Cdk2
condition.details: 10 nM Cyclin E1/Cdk2, 2 nM FAM probe; average of 2-3 independent experiments; read-out: Cyclin E FP IC50
*1 amine or outer side, *2 acyl side, *3 side chain or, on linkers, in order; H or OH if unused. Where a SMILES comes first, the peptide text is derived from it. Bridges are numbered along the chain shown (N, C = ends). [ ]: non-standard residue; d: D form. The star is where a group is joined. X45 = CN1CCC(F)(c2ccc(-c3ccc(Cl)cc3C[C@@H](C(=O)[*:2])N(C)[*:1])cc2)CC1; NMeAla(5-Cl-2-cPrO-3-pyridyl) = CN[C@@H](Cc1cc(Cl)cnc1OC1CC1)C(=O)O; NMehhhLys(Me) = CN([C@@H](CCCCCCCN(C)[*:3])C(=O)[*:2])[*:1]; NMe(hhhLys) = CN([C@@H](CCCCCCCN[*:3])C(=O)[*:2])[*:1]; cBuCO(3,3-F2-1-CF3) = O=C(C1(C(F)(F)F)CC(F)(F)C1)*; Pro(trans-4-F) = O=C(O)[C@@H]1C[C@@H](F)CN1; Gly(cPr) = N[C@H](C(=O)O)C1CC1
quantity: IC50 (nM)
Answer with a number only, understood to be in nM.

Q: Could you tell me which IC50 is on file for CC(C)C[C@@H]1NC(=O)[C@@H](N(C)C(=O)[C@@H](NC(=O)[C@@H]2C[C@@H](F)CN2C(=O)C2(C(F)(F)F)CC(F)(F)C2)C2CC2)CCCCCCCNC(=O)[C@H](Cc2cc(Cl)cnc2OC2CC2)N(C)C1=O [Example 103] ({cBuCO(3,3-F2-1-CF3)}-[Pro(trans-4-F)][Gly(cPr)][NMe(hhhLys)]L[NMeAla(5-Cl-2-cPrO-3-pyridyl)]; lactam 3-C) ?
Result: 350

Q: Please give the result for CC(C)C[C@@H]1NC(=O)[C@@H](N(C)C(=O)[C@@H](NC(=O)[C@@H]2C[C@@H](F)CN2C(=O)C2(C(F)(F)F)CC(F)(F)C2)C2CC2)CCCCCCCN(C)C(=O)[C@H](Cc2cc(Cl)ccc2-c2ccc(C3(F)CCN(C)CC3)cc2)N(C)C1=O [Example 370] ({cBuCO(3,3-F2-1-CF3)}-[Pro(trans-4-F)][Gly(cPr)][NMehhhLys(Me)]L[X45]; lactam 3-C) too.
Result: 780

* * *

For each record, write down the corresponding pIC50.
test.target: CyclinE1/CDK2 (Homo sapiens, UniProt P24864)
Construct: purchased Eurofins, discovery 14-475
experiment.notes: Fluorescence Polarization (FP) competitive binding assay, Cyclin E1/Cdk2;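 further: readings taken after two-hour equilibration at room temperature in HEPES buffer with NaCl, DTT, NP-40 and BSA, IC50 fitted from eight-concentration serial dilution series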
condition.details: 10 nM Cyclin E1/Cdk2, 2 nM FAM probe; average of 2-3 independent experiments; read-out: Cyclin E FP IC50
*1 amine or outer side, *2 acyl side, *3 side chain or, on linkers, in order; H or OH if unused. Where a SMILES comes first, the peptide text is derived from it. Bridges are numbered along the chain shown (N, C = ends). [ ]: non-standard residue; d: D form. The star is where a group is joined. X39 = CN1CCC(n2cc(-c3ccc(-c4ccc(Cl)cc4C[C@@H](C(=O)[*:2])N(C)[*:1])cc3)cn2)CC1; X145 = CN1CCN(c2ccc(-c3ccc(F)cc3C[C@@H](C(=O)[*:2])N(C)[*:1])cc2F)CC1; X115 = CN([C@@H](Cc1cc(Cl)ccc1-c1ccc(N2CCNCC2)cc1)C(=O)[*:2])[*:1]; X130 = CN([C@@H](Cc1cc(F)ccc1-c1ccn(S(C)(=O)=O)c1)C(=O)[*:2])[*:1]; NMehhhLys(Me) = CN([C@@H](CCCCCCCN(C)[*:3])C(=O)[*:2])[*:1]; cBuCO(3,3-F2-1-CF3) = O=C(C1(C(F)(F)F)CC(F)(F)C1)*; Pro(trans-4-F) = O=C(O)[C@@H]1C[C@@H](F)CN1; Gly(cPr) = N[C@H](C(=O)O)C1CC1
Interpret pIC50 as the negative base-10 log of the concentration measured in mol/L.

Q: Entry CC(C)C[C@@H]1NC(=O)[C@@H](N(C)C(=O)[C@@H](NC(=O)[C@@H]2C[C@@H](F)CN2C(=O)C2(C(F)(F)F)CC(F)(F)C2)C2CC2)CCCCCCCN(C)C(=O)[C@H](Cc2cc(Cl)ccc2-c2ccc(-c3cnn(C4CCN(C)CC4)c3)cc2)N(C)C1=O [Example 380] ({cBuCO(3,3-F2-1-CF3)}-[Pro(trans-4-F)][Gly(cPr)][NMehhhLys(Me)]L[X39]; lactam 3-C) , system CyclinE1/CDK2 (Homo sapiens, UniProt P24864): what pIC50 was measured?
Result: 5.66

Q: Please give the result for CC(C)C[C@@H]1NC(=O)[C@@H](N(C)C(=O)[C@@H](NC(=O)[C@@H]2C[C@@H](F)CN2C(=O)C2(C(F)(F)F)CC(F)(F)C2)C2CC2)CCCCCCCN(C)C(=O)[C@H](Cc2cc(F)ccc2-c2ccc(N3CCN(C)CC3)c(F)c2)N(C)C1=O [Example 401] ({cBuCO(3,3-F2-1-CF3)}-[Pro(trans-4-F)][Gly(cPr)][NMehhhLys(Me)]L[X145]; lactam 3-C) too.
Result: 6.42

Q: Please give the result for CC(C)C[C@@H]1NC(=O)[C@@H](N(C)C(=O)[C@@H](NC(=O)[C@@H]2C[C@@H](F)CN2C(=O)C2(C(F)(F)F)CC2)C2CC2)CC=CCCCCNC(=O)[C@H](Cc2cc(Cl)ccc2Cl)N(C)C1=O (single isomer, unassigned) [Example 5-P1] too.
Result: 6.15

Q: Please give the result for CC(C)C[C@@H]1NC(=O)[C@@H](N(C)C(=O)[C@@H](NC(=O)[C@@H]2C[C@@H](F)CN2C(=O)C2(C(F)(F)F)CC(F)(F)C2)C2CC2)CCCCCCCN(C)C(=O)[C@H](Cc2cc(Cl)ccc2-c2ccc(N3CCNCC3)cc2)N(C)C1=O [Example 341] ({cBuCO(3,3-F2-1-CF3)}-[Pro(trans-4-F)][Gly(cPr)][NMehhhLys(Me)]L[X115]; lactam 3-C) too.
Result: 6.29

Q: Please give the result for CC(C)C[C@@H]1NC(=O)[C@@H](N(C)C(=O)[C@@H](NC(=O)[C@@H]2C[C@@H](F)CN2C(=O)C2(C(F)(F)F)CC(F)(F)C2)C2CC2)CCCCCCCN(C)C(=O)[C@H](Cc2cc(F)ccc2-c2ccn(S(C)(=O)=O)c2)N(C)C1=O [Example 306] ({cBuCO(3,3-F2-1-CF3)}-[Pro(trans-4-F)][Gly(cPr)][NMehhhLys(Me)]L[X130]; lactam 3-C) too.
Result: 6.70

Q: Please give the result for CC(C)C[C@@H]1NC(=O)[C@@H](N(C)C(=O)[C@H](C)NC(=O)[C@@H]2C[C@@H](F)CN2C(=O)C2(C(F)(F)F)CC(F)(F)C2)CC=CCCCCNC(=O)[C@H](Cc2cc(Cl)ccc2Cl)N(C)C1=O [Example 54] too.
Result: 5.47

Q: Please give the result for CC(C)C[C@@H]1NC(=O)[C@@H](N(C)C(=O)[C@@H](NC(=O)[C@@H]2C[C@@H](F)CN2C(=O)C2(C(F)(F)F)CC(F)(F)C2)C2CC2)CC=CCCCCNC(=O)[C@H](Cc2cc(Cl)ccc2C2=CCOCC2)N(C)C1=O [Example 17] too.
Result: 5.39
